- testDetails: Pharmacokinetics after repeated oral administration of 35 μg/kg of fluralaner in dogs after feeding
- Type: in vivo, beagle dogs
- appliedConditions: beagle, dog, plasma, po, 35 μg/kg, 120 h; oral 35 μg/kg Days 0-3, dogs, n=6; read-out: fluralaner concentration levels, Median
testReadout: concentration at 120 h (ng/mL)
Answers are plain numbers, in ng/mL.

Asked: Entry under review: Cc1cc(C2=NOC(c3cc(Cl)cc(Cl)c3)(C(F)(F)F)C2)ccc1C(=O)NCC(=O)NCC(F)(F)F (stereo not shown) . Reported concentration at 120 h?
Given back: 63.2

###

- testDetails: Pharmacokinetics after repeated oral administration of 250 μg/kg and 35 μg/kg of fluralaner in dogs after feeding
- Assay type: in vivo, beagle dogs
- appliedConditions: beagle, dog, plasma, po, 144 h; oral 250/35/600 μg/kg regimen, dogs, n=6; read-out: fluralaner concentration levels, Median
testReadout: concentration at 144 h (ng/mL)
Answers are plain numbers, in ng/mL.

Asked: Entry under review: Cc1cc(C2=NOC(c3cc(Cl)cc(Cl)c3)(C(F)(F)F)C2)ccc1C(=O)NCC(=O)NCC(F)(F)F (stereo not shown) [fluralaner, Fluralaner] . Reported concentration at 144 h?
Given back: 496
